Values were extracted from paper PMC8977021.

Biological target: T1, PcRsmA (Penicillium chrysogenum Wis54-1255 (P. …, UniProt B6GZ21 1-299))
T1 sequence: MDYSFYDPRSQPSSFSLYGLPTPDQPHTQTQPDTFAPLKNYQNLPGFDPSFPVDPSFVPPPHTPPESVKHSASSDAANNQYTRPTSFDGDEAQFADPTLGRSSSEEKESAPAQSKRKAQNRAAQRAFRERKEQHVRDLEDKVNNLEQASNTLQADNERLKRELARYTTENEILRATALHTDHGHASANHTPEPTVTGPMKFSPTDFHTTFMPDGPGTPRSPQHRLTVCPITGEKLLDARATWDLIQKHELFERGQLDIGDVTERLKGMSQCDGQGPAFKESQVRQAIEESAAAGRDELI
Test: EMSA; LightShift binding buffer 1X, about 10% glycerol, 5 mM MgCl2, 20 fmol biotin probe, 10 ug protein, 20 uL, room temperature 20 min; 5% native PAGE in 0.5X TBE; pH and salt not given
Settings: protein: recombinant; tags: C-terminal c-myc-6xHis; chain copies: 2; label: 3' biotin; blunt

binder	binding result
penDE-CRE123-M1 (dsDNA) DNA 1: AGGTCCTGCATTAGCGTACGCCCCAGGTTTAGATCAAAGCTACGAAATTTATATGTA DNA 2: TACATATAAATTTCGTAGCTTTGATCTAAACCTGGGGCGTACGCTAATGCAGGACCT	no binding
RsmA-2 (dsDNA) DNA 1: CAGTAAGCATCTGGGCTGCAAGCGTATAATGTCTCCAGGTTGTCTCAGCATAAACA DNA 2: TGTTTATGCTGAGACAACCTGGAGACATTATACGCTTGCAGCCCAGATGCTTACTG	binds
AP1-brlA-Mut (dsDNA) DNA 1: AAAACAATACAATTGACTAGAGTCCACTGGGCA DNA 2: TGCCCAGTGGACTCTAGTCAATTGTATTGTTTT	no binding
PTA1-M1 (dsDNA) DNA 1: GCCAGTGTAAAACTAGTCACCGTATCTC DNA 2: GAGATACGGTGACTAGTTTTACACTGGC	no binding
RsmA-2C (dsDNA) DNA 1: CTCCAGGTTGTCTCAGCATAAACA DNA 2: TGTTTATGCTGAGACAACCTGGAG	binds
PTA1-WT (dsDNA) DNA 1: GCCAGTGTAAAATTAGTAACCGTATCTC DNA 2: GAGATACGGTTACTAATTTTACACTGGC	no binding
RsmA-2B (dsDNA) DNA 1: CAGTAAGCATCTGGGCTGCAAGCGTATAATGTCTCCAG DNA 2: CTGGAGACATTATACGCTTGCAGCCCAGATGCTTACTG	no binding
AP1-brlA (dsDNA) DNA 1: AAAACAATACAATTTACTAAAGTCCACTGGGCA DNA 2: TGCCCAGTGGACTTTAGTAAATTGTATTGTTTT	no binding
AflR-RsmA (dsDNA) DNA 1: CGACTGACACAAGAAATAACAATTC DNA 2: GAATTGTTATTTCTTGTGTCAGTCG	binds
RsmA-2A (dsDNA) DNA 1: CAGTAAGCATCTGGGCTGCAAGCGTATA DNA 2: TATACGCTTGCAGCCCAGATGCTTACTG	no binding
penDE-CRE123 (dsDNA) DNA 1: AGGTCCTGCATTAGCGTACGCCCCAGGTTTAGATCAAAGTTACGTAATTTATATGTA DNA 2: TACATATAAATTACGTAACTTTGATCTAAACCTGGGGCGTACGCTAATGCAGGACCT	binds
